- Measured On: Steroidogenic factor 1 (Homo sapiens) (UniProt Q13285)
- Sequence (Q13285 whole entry, looked up): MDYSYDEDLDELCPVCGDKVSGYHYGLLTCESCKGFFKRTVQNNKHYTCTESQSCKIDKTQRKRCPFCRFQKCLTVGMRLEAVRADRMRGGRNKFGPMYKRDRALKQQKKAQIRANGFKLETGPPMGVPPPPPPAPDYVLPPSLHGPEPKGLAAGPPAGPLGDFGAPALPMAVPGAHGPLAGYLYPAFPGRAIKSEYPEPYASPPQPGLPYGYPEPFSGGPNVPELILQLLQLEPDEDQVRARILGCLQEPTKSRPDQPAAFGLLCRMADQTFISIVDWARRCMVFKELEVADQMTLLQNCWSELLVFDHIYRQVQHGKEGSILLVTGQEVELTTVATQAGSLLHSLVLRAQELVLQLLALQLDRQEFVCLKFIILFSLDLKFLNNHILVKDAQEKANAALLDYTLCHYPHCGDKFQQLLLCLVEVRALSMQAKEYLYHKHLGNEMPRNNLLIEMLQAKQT
- Protocol Text: SF1 (NR5A1) inverse agonists, counter-screen for LRH-1 inverse agonist project, cell-based, luminescence, high throughput (AID 651614);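 note: cells cotransfected with StAR promoter reporter and SF1 expression vector; 0% = vehicle on cells with receptor and 100% = vehicle on cells lacking receptor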
- Recorded Conditions: cell-based SF1 luciferase reporter, at 3.6 µM, stronger effect = higher value
Reported values of inhibition for individual entries

>  <Compound>
O=C1CCCN2N=C(SCC(=O)Nc3ccc(Br)cc3)SC2=N1

>  <inhibition [%]>
48.8

$$$$
>  <Compound>
CC(=O)C1=C(c2cccc([N+](=O)[O-])c2)N(C(C)=O)n2c(C)nnc2S1

>  <inhibition [%]>
50.3

$$$$
>  <Compound>
Cc1cc(C)c2nc(-c3cccnc3)cc(C(=O)NC(C)c3cnn(C)c3C)c2c1 (stereo not drawn)

>  <inhibition [%]>
50.9

$$$$

----------
Reported values of inhibition for individual entries
- Protocol Text: StAR promoter reporter inhibitors, counter-screen for LRH-1 inverse agonist project, cell-based, luminescence, high throughput (AID 651611)
- Recorded Conditions: StAR promoter luciferase reporter counterscreen, at 3.6 µM, stronger effect = higher value
Measure Name: inhibition (%)

>  <Molecule>
COc1cccc(/C=N/Nc2ncnc3c2ncn3Cc2ccccc2)c1O

>  <Measure Name>
inhibition

>  <Reported Result>
84.4

$$$$
>  <Molecule>
Cc1nc(C)c(-c2csc(Nc3cccnc3)n2)s1

>  <Measure Name>
inhibition

>  <Reported Result>
-12.1

$$$$
>  <Molecule>
C=CC(=O)N1C/C(=C/c2ccc(F)cc2)C(=O)/C(=C\c2ccc(F)cc2)C1

>  <Measure Name>
inhibition

>  <Reported Result>
27.1

$$$$
>  <Molecule>
C=CCNc1sc(C(=O)c2ccccc2)c(N)c1C#N

>  <Measure Name>
inhibition

>  <Reported Result>
13.8

$$$$
>  <Molecule>
O=C(CCl)Nc1ccc(Oc2cnc3ccccc3n2)cc1

>  <Measure Name>
inhibition

>  <Reported Result>
43.6

$$$$
>  <Molecule>
COc1ccc(CCNC(=O)c2cc(-c3ccco3)on2)cc1OC

>  <Measure Name>
inhibition

>  <Reported Result>
-181

$$$$
>  <Molecule>
CC(=O)Nc1ccc(Oc2sc(C(=O)c3ccccc3)c(N)c2C#N)cc1

>  <Measure Name>
inhibition

>  <Reported Result>
35.8

$$$$
>  <Molecule>
Cc1nn(CC(=O)Nc2ccc(N3CCOCC3)cc2)c(C)c1Cl

>  <Measure Name>
inhibition

>  <Reported Result>
-2.18

$$$$
>  <Molecule>
C(=N\Nc1nc2ccccc2[nH]1)/c1cccc2cccnc12

>  <Measure Name>
inhibition

>  <Reported Result>
49.4

$$$$
>  <Molecule>
CN(C)CCNc1ccc(CO)c2oc3ccc(O)cc3c(=O)c12

>  <Measure Name>
inhibition

>  <Reported Result>
47.7

$$$$
>  <Molecule>
Cc1[nH]c2ccccc2c1/C=N/Nc1ccc([N+](=O)[O-])cc1

>  <Measure Name>
inhibition

>  <Reported Result>
-1.71

$$$$
>  <Molecule>
C#Cc1cccc(Nc2nc(NCCOC)nc3ccsc23)c1

>  <Measure Name>
inhibition

>  <Reported Result>
26.9

$$$$
>  <Molecule>
CC(=O)Nc1ccc(NC(=O)CSc2nnc(-c3cc4ccccc4o3)n2C)cc1

>  <Measure Name>
inhibition

>  <Reported Result>
-0.36

$$$$
>  <Molecule>
O=C(Cn1ncc(Cl)c(Cl)c1=O)Nc1ccc2c(c1)OCO2

>  <Measure Name>
inhibition

>  <Reported Result>
-10.7

$$$$
>  <Molecule>
O=C(CN1C(=O)CCC1=O)Nc1ccc(Br)cc1

>  <Measure Name>
inhibition

>  <Reported Result>
15.1

$$$$
>  <Molecule>
O=C(CSC1=NCCS1)N1CCN(c2ccc(Cl)cc2)CC1

>  <Measure Name>
inhibition

>  <Reported Result>
8.14

$$$$
>  <Molecule>
CC1CCCC(C)N1C(=O)COC(=O)Cc1ccc(F)cc1 (stereo unspecified)

>  <Measure Name>
inhibition

>  <Reported Result>
-0.44

$$$$
>  <Molecule>
O=C(COC(=O)CCN1C(=O)C2CC=CCC2C1=O)NCCc1ccc(F)cc1 (stereo unspecified)

>  <Measure Name>
inhibition

>  <Reported Result>
7.75

$$$$
>  <Molecule>
CCC(C)N(CC(=O)Nc1cccc(C)c1C)C(=O)CCl (stereo unspecified)

>  <Measure Name>
inhibition

>  <Reported Result>
69.2

$$$$
>  <Molecule>
Cn1cnc([N+](=O)[O-])c1Oc1ccc2ccccc2c1

>  <Measure Name>
inhibition

>  <Reported Result>
38.9

$$$$
>  <Molecule>
COc1ccc(CCNc2ncnc3c2oc2ccccc23)cc1OC

>  <Measure Name>
inhibition

>  <Reported Result>
34.5

$$$$
>  <Molecule>
C#CCN(C[C@@H]1[C@@H](OC(=O)NCc2ccc(OC)c(OC)c2)[C@@H](OC(=O)NCc2ccc(OC)c(OC)c2)CN(C(=O)OC(C)C)N1C(=O)OC(C)C)S(=O)(=O)c1ccc(C)cc1

>  <Measure Name>
inhibition

>  <Reported Result>
1.68

$$$$
>  <Molecule>
COc1ccc(CCNC(=O)CSc2ccc(NC(C)=O)cc2)cc1OC

>  <Measure Name>
inhibition

>  <Reported Result>
9.56

$$$$
>  <Molecule>
CC1=NN(c2nc3ccccc3[nH]2)C(=O)C1Cc1ccccc1 (stereo unspecified)

>  <Measure Name>
inhibition

>  <Reported Result>
70.3

$$$$
>  <Molecule>
Cc1cc(C(=O)COC(=O)c2ccccc2O)c(C)n1Cc1cccs1

>  <Measure Name>
inhibition

>  <Reported Result>
85

$$$$
>  <Molecule>
OCC1OC(n2cnc3c(NCc4ccccc4O)ncnc32)C(O)C1O (stereo unspecified)

>  <Measure Name>
inhibition

>  <Reported Result>
87.5

$$$$
>  <Molecule>
O=C1C=C(c2ccccc2)OC2(CCCC2)O1

>  <Measure Name>
inhibition

>  <Reported Result>
19.8

$$$$
>  <Molecule>
COc1ccc2nc(N3CCN(C(=O)c4ccc([N+](=O)[O-])o4)CC3)sc2c1

>  <Measure Name>
inhibition

>  <Reported Result>
0.52

$$$$
>  <Molecule>
CC(=O)N[C@@H](Cc1c[nH]c2ccccc12)C(=O)OCC(=O)Nc1ccc2c(c1)OCO2

>  <Measure Name>
inhibition

>  <Reported Result>
-1.82

$$$$
>  <Molecule>
CCCc1cc(=O)oc2cc(OCC(=O)NCCc3ccc(S(N)(=O)=O)cc3)ccc12

>  <Measure Name>
inhibition

>  <Reported Result>
9.29

$$$$
>  <Molecule>
c1cncc(-c2nc(N3CCCCCC3)c3ccccc3n2)c1

>  <Measure Name>
inhibition

>  <Reported Result>
20.8

$$$$
>  <Molecule>
COc1ccccc1NS(=O)(=O)c1cccc(C(=O)NC2CCN(Cc3ccccc3)CC2)c1

>  <Measure Name>
inhibition

>  <Reported Result>
26.2

$$$$
>  <Molecule>
CCn1c2ccccc2c2cc(/C=N/n3cn[nH]c3=S)ccc21

>  <Measure Name>
inhibition

>  <Reported Result>
4.27

$$$$
>  <Molecule>
O=C(CN1C(=O)c2ccccc2S1(=O)=O)c1ccc(Cl)cc1Cl

>  <Measure Name>
inhibition

>  <Reported Result>
67.9

$$$$
>  <Molecule>
COc1ccc(CCNC(=O)CSC2=Nc3ccccc3C3=NC(C(C)C)C(=O)N23)cc1OC (stereo unspecified)

>  <Measure Name>
inhibition

>  <Reported Result>
21.5

$$$$
>  <Molecule>
CN(C)CC1CCC/C(=C\c2ccc(OC(=O)c3ccc(Cl)cc3)cc2)C1=O (stereo unspecified)

>  <Measure Name>
inhibition

>  <Reported Result>
70.8

$$$$

----------
- Measured On: Protein phosphatase methylesterase 1 (Homo sapiens) (UniProt Q9Y570)
- Sequence (Q9Y570 whole entry, looked up): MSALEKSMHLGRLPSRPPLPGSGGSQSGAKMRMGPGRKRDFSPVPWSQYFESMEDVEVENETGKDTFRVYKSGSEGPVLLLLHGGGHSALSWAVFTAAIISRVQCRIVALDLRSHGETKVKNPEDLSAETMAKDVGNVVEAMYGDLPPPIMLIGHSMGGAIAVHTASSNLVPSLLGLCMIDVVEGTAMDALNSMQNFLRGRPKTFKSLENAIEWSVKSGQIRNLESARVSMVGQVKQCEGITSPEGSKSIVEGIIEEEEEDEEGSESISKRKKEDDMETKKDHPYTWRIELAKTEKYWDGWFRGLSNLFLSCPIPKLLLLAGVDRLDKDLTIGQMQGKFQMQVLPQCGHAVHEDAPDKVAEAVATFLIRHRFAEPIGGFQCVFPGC
- Protocol Text: PME-1 inhibitor activity retest, confirmation, biochemical, fluorescence polarization, FP-Rh probe, triplicate (AID 2171);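 note: 0% = enzyme with DMSO and 100% = wells lacking PME-1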
- Recorded Conditions: recombinant PME-1, FP-Rh probe fluorescence polarization; at 5.9 µM; stronger effect = higher value

>  <Compound>
O=C(O)c1cccc(-n2c(/C=C/c3ccc([N+](=O)[O-])cc3)nc3ccccc3c2=O)c1

>  <inhibition, %>
24.3

$$$$
>  <Compound>
CCOc1cccc(CNc2ccc(O)cc2)c1OCc1ccccc1Cl

>  <inhibition, %>
6.79

$$$$
>  <Compound>
COc1cccc(/C=N/NC(=O)c2[nH]c(C)c(C(=O)N/N=C/c3cccc(OC)c3O)c2C)c1O

>  <inhibition, %>
-31.6

$$$$
>  <Compound>
CCC(=O)NC(c1cccs1)c1cc([N+](=O)[O-])c2cccnc2c1O (configuration not stated)

>  <inhibition, %>
25.9

$$$$
>  <Compound>
Cc1[nH]c2c(C)cccc2c1CCNC(=O)c1ccc2c(c1[N+](=O)[O-])C(=O)c1ccccc1C2=O

>  <inhibition, %>
75.1

$$$$
>  <Compound>
Cn1c(O)c(/C=N/NC(=O)c2cc3ccccc3cc2O)c2ccccc21

>  <inhibition, %>
58.7

$$$$
>  <Compound>
Cc1cccc2c(N=Nc3ccc(S(=O)(=O)Nc4cccc(Cl)c4)cc3[N+](=O)[O-])c(O)[nH]c12

>  <inhibition, %>
-12.3

$$$$
